Kp overview
TEST SUMMARY: in vivo
REPORTED CONDITIONS: female, CD-1, mouse, po, 10 mg/kg, Lung to Plasma ratio Cmax
OUTCOME MEASURE: Kp

> print(dat)
                                   compound  outcome.measure  measured.number
1  O=[N+]([O-])c1cn2c(n1)OC[C@@H](NCCc1ccc(OC(F)(F)F)cc1)C2 [AminoEthyl-824]               Kp              1.6
2  O=[N+]([O-])c1cn2c(n1)OC[C@@H](NCc1ccc(OC(F)(F)F)cc1)C2 [Amino-824]               Kp              0.8
